Molecular target: T1, EsCas13d, nuclease-dead (Eubacterium siraeum, UniProt B0MS50, R295A;H300A;R849A;H854A)
T1 sequence: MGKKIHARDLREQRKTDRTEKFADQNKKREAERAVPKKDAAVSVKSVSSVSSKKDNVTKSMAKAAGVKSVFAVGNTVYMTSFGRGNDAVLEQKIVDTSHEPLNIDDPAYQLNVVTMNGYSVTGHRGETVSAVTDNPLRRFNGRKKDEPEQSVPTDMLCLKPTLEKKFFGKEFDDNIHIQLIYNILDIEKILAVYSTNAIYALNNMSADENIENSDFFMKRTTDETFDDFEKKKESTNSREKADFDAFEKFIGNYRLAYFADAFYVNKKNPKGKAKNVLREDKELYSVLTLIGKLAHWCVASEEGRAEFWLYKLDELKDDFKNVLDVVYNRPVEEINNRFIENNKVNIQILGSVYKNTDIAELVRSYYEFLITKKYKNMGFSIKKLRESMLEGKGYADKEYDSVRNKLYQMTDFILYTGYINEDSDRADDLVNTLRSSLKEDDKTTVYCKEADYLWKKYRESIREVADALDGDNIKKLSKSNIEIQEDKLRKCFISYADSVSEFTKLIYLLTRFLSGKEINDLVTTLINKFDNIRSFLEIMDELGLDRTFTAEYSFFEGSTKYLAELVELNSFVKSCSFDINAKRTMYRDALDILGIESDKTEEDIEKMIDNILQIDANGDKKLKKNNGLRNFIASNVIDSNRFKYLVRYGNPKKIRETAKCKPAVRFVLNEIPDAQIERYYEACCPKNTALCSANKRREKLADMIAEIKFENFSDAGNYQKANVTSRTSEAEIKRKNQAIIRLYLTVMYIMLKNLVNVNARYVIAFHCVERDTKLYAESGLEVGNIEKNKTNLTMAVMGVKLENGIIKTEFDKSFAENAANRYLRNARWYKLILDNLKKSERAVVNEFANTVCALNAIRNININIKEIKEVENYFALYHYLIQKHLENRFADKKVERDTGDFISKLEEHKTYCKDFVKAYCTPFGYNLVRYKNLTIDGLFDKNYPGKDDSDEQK
Assay: crRNA (strand 1, pre-loaded); Mg2+; 40 mM Tris-HCl pH 7.5, 150 mM NaCl, 6 mM MgCl2, 1 mM DTT, 0.1% Tween-20, 0.2 mg/ml BSA; 25 C; 10 min per concentration, then washed
Details: tags: His6-TwinStrep-SUMO cleaved; N-terminal SNAP kept (SNAP-Surface 488); label: 3' end held by stalled T7 RNA polymerase
The entries below are paired with their reported pKd.
pKd here is simply -log10 of the concentration when that concentration is written in mol/L.

* target 1 MT 5'PFS GUG 3'PFS CUG (mixed) RNA 1: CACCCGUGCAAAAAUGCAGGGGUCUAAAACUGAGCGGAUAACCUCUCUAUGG RNA 2: GGGAAUGGAUCCACAUCUACGAAUUCGUGCCAUAGAGAGGUUAUCCGCUCACUGAGAUCGGAAGAGCACACGU | 7.99
* target 1 C7G,G12C (mixed) RNA 1: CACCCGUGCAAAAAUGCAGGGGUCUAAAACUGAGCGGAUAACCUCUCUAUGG RNA 2: GGGAAUGGAUCCACAUCUACGAAUUCGUACCAUAGAGAGCUUAUGCGCUCACCGAGAUCGGAAGAGCACACGU | 7.63
* target 1 MT 5'PFS UCA 3'PFS CGA (mixed) RNA 1: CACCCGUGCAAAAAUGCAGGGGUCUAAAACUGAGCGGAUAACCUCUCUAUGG RNA 2: GGGAAUGGAUCCACAUCUACGAAUUCUCACCAUAGAGAGGUUAUCCGCUCACGAAGAUCGGAAGAGCACACGU | 7.92

# next binder below
-- ask Quick check: pKd of target 1 insG 3' of 9,insC 3' of 3 (mixed) RNA 1: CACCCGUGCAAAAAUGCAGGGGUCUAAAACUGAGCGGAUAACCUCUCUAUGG RNA 2: GGGAAUGGAUCCACAUCUACGAAUUCGUACCAUAGAGAGGUUAGUCCGCUCCACCGAGAUCGGAAGAGCACACGU ?
-- reply 7.80
